assay protocol: qHTS of pediatric cancer cell lines to identify multiple opportunities for drug repurposing: Primary screen for BT-12 cells (AID 1347101); further: nearly all actives have a fitted effect of over 25% in size
test conditions: BT-12 viability, CellTiter-Glo luminescence, 48 h; series mostly up to 57.3 µM
Results filed as inconclusive are left out. Active and inactive are the calls of the source. The call rests on the fitted dose curve; in most records, active means well fitted cell-killing curve with a large enough effect; inconclusive means small, poorly fitted or top-dose-only effect; inactive means flat fitted curve, though single readings scatter.
Labels: yes = active, no = inactive

[
  {
    "compound": "NC(=O)c1cc([N+](=O)[O-])cc([N+](=O)[O-])c1",
    "category": "no"
  },
  {
    "compound": "C[C@]12CCC(=O)C=C1CC[C@@H]1[C@@H]2CC[C@]2(C)C(=O)CC[C@@H]12",
    "category": "no"
  },
  {
    "compound": "O=c1[nH]oc2c1CCNC2",
    "category": "no"
  },
  {
    "compound": "NC(=O)CS(=O)C(c1ccccc1)c1ccccc1 (configuration not stated)",
    "category": "no"
  },
  {
    "compound": "Nc1ccccc1C(=O)O",
    "category": "no"
  },
  {
    "compound": "C[C@H](N)C(=O)c1ccccc1",
    "category": "no"
  },
  {
    "compound": "O=C1c2ccccc2C(=O)C1C(=O)C(c1ccccc1)c1ccccc1",
    "category": "no"
  },
  {
    "compound": "CC(C)C[C@H](CN)CC(=O)O",
    "category": "no"
  },
  {
    "compound": "CCc1cc2c(s1)-n1c(C)nnc1CN=C2c1ccccc1Cl",
    "category": "no"
  },
  {
    "compound": "O=C(Nc1ccc(Br)cc1)c1cc(Br)cc(Br)c1O",
    "category": "yes"
  },
  {
    "compound": "COP(=S)(OC)Oc1ccc(SC)c(C)c1",
    "category": "no"
  },
  {
    "compound": "COP(=S)(OC)SCN1C(=O)c2ccccc2C1=O",
    "category": "no"
  }
]

----------
assay protocol: Primary qHTS for Vero E6 cytotoxicity: counterscreen for inhibitors of SARS-S pseudo-typed particle cell entry (AID 1479150); on activity change, negative = cytotoxicity: on the % scale 0 is the no-effect control and ±100 the full control effect
test conditions: cell viability; series mostly up to 57.1 µM
Results filed as inconclusive are left out. Active and inactive are the calls of the source. The call rests on the fitted dose curve.

[
  {
    "compound": "COc1ccc(C(=O)c2ccccc2O)c(O)c1",
    "activity change, negative = cytotoxicity": "inactive"
  },
  {
    "compound": "CC(=O)Nc1ccc(C(=O)O)cc1",
    "activity change, negative = cytotoxicity": "inactive"
  },
  {
    "compound": "C[C@]12CCC(=O)C=C1CC[C@@H]1[C@@H]2CC[C@]2(C)C(=O)CC[C@@H]12",
    "activity change, negative = cytotoxicity": "inactive"
  },
  {
    "compound": "O=c1c(-c2ccc(O)cc2)coc2cc(O)cc(O)c12",
    "activity change, negative = cytotoxicity": "inactive"
  },
  {
    "compound": "CCc1cccc(CC)c1NC(=O)CN(CC(=O)O)CC(=O)O",
    "activity change, negative = cytotoxicity": "inactive"
  },
  {
    "compound": "CCCCCN(CCCOC)C(=O)C(CCC(=O)O)NC(=O)c1ccc(Cl)c(Cl)c1 (stereo unspecified)",
    "activity change, negative = cytotoxicity": "inactive"
  },
  {
    "compound": "COc1cccc(OC)c1C(=O)N[C@@H]1C(=O)N2[C@@H]1SC(C)(C)[C@@H]2C(=O)O",
    "activity change, negative = cytotoxicity": "inactive"
  },
  {
    "compound": "CCOP(=S)(OCC)Oc1ccc2c(C)c(Cl)c(=O)oc2c1",
    "activity change, negative = cytotoxicity": "inactive"
  },
  {
    "compound": "CC(=O)Oc1cc(C(C)C)c(OCCN(C)C)cc1C",
    "activity change, negative = cytotoxicity": "inactive"
  },
  {
    "compound": "CC(C)(C(=O)c1cccnc1)c1cccnc1",
    "activity change, negative = cytotoxicity": "inactive"
  },
  {
    "compound": "Cc1ccc(C(=O)C(C)CN2CCCCC2)cc1 (stereo unspecified)",
    "activity change, negative = cytotoxicity": "inactive"
  }
]

----------
assay protocol: Drug repurposing screens with cells derived from glioblastoma tumor samples (AID 1345199); further: on the % scale 0 is the no-effect control and ±100 the full control effect; nearly all actives have a fitted effect of over 40% in size
test conditions: GBM patient neurospheres viability, ATP luminescence, 48 h; at 46 µM (top of the series); tumour line A
Results filed as inconclusive are left out.
Property: activity, negative = cell killing; scope: individual molecules

[
  {
    "molecule": "Nc1ccccc1",
    "activity, negative = cell killing (%)": -28.7
  },
  {
    "molecule": "O=C(O)/C=C\\C(=O)O",
    "activity, negative = cell killing (%)": -28.3
  },
  {
    "molecule": "CC(C)c1cccc(C(C)C)c1O",
    "activity, negative = cell killing (%)": -26.1
  },
  {
    "molecule": "COP(=S)(OC)Oc1ccc(SC)c(C)c1",
    "activity, negative = cell killing (%)": -25.3
  },
  {
    "molecule": "O=C1Nc2ccc(Cl)cc2C(c2ccccc2Cl)=NC1O (centres undefined)",
    "activity, negative = cell killing (%)": -25.3
  },
  {
    "molecule": "C#C[C@]1(O)CC[C@H]2[C@@H]3CCC4=CC(=O)CC[C@]4(C)[C@H]3CC[C@@]21C",
    "activity, negative = cell killing (%)": -19.9
  },
  {
    "molecule": "CCC1(CC)C(=O)C=CNC1=O",
    "activity, negative = cell killing (%)": -23.7
  },
  {
    "molecule": "Cc1nnc2n1-c1ccc(Cl)cc1C(c1ccccc1Cl)=NC2",
    "activity, negative = cell killing (%)": -36.4
  },
  {
    "molecule": "NC1=NC(=O)C(c2ccccc2)O1 (centres undefined)",
    "activity, negative = cell killing (%)": -19.1
  },
  {
    "molecule": "Oc1ccc(Cl)cc1",
    "activity, negative = cell killing (%)": -26.5
  },
  {
    "molecule": "CN1C(=O)CC(=O)N(c2ccccc2)c2cc(Cl)ccc21",
    "activity, negative = cell killing (%)": -21.5
  },
  {
    "molecule": "NC(=O)CS(=O)C(c1ccccc1)c1ccccc1 (centres undefined)",
    "activity, negative = cell killing (%)": -9.02
  },
  {
    "molecule": "O=c1[nH]oc2c1CCNC2",
    "activity, negative = cell killing (%)": -27.4
  },
  {
    "molecule": "NNc1ccccc1",
    "activity, negative = cell killing (%)": -20.5
  },
  {
    "molecule": "CN1C(=O)NC(=O)C(C)(C2=CCCCC2)C1=O (centres undefined)",
    "activity, negative = cell killing (%)": 3.99
  },
  {
    "molecule": "NCCc1ccc(O)cc1",
    "activity, negative = cell killing (%)": -19.3
  },
  {
    "molecule": "O=C1c2ccccc2C(=O)C1C(=O)C(c1ccccc1)c1ccccc1",
    "activity, negative = cell killing (%)": -53.7
  },
  {
    "molecule": "CCCC(C)(COC(N)=O)COC(N)=O",
    "activity, negative = cell killing (%)": -19.1
  },
  {
    "molecule": "COC(=O)C(Cl)C(=O)OC",
    "activity, negative = cell killing (%)": -23.7
  },
  {
    "molecule": "COP(=S)(OC)Oc1ccc(S(=O)(=O)N(C)C)cc1",
    "activity, negative = cell killing (%)": -29.3
  },
  {
    "molecule": "Nc1ccccc1C(=O)O",
    "activity, negative = cell killing (%)": -2.87
  },
  {
    "molecule": "CCC(C)(C)c1ccc(O)cc1",
    "activity, negative = cell killing (%)": -14.1
  },
  {
    "molecule": "CC(C)NC(C)C",
    "activity, negative = cell killing (%)": 1.87
  },
  {
    "molecule": "CN1C(=O)C(O)N=C(c2ccccc2)c2cc(Cl)ccc21 (centres undefined)",
    "activity, negative = cell killing (%)": -24.3
  }
]

----------
assay protocol: qHTS Assay for Identifying Gametocytocidal Compounds (AID 743244);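 further: on the % scale 0 is the no-effect control and ±100 the full control effect; actives lower the fluorescent signal which means gametocytes are killed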
test conditions: P. falciparum 3D7 stage III-V gametocytes, alamarBlue, 72 h; active compounds read low
Records with an inconclusive call do not appear.
Property: max response; scope: individual molecules

[
  {
    "molecule": "NC1=NC(=O)C(c2ccccc2)O1 (centres undefined)",
    "max response (%)": -7.8
  },
  {
    "molecule": "CN=C1CN(O)C(c2ccccc2)=c2cc(Cl)ccc2=N1",
    "max response (%)": 7.17
  },
  {
    "molecule": "Cc1nnc2n1-c1ccc(Cl)cc1C(c1ccccc1Cl)=NC2",
    "max response (%)": -0.695
  },
  {
    "molecule": "O=C1CN=C(c2ccccc2)c2cc([N+](=O)[O-])ccc2N1",
    "max response (%)": 13.6
  },
  {
    "molecule": "COc1c2c(cc3c1OCO3)CCN(C)C2",
    "max response (%)": 7.33
  },
  {
    "molecule": "CCC1(CC)C(=O)C=CNC1=O",
    "max response (%)": -13.9
  },
  {
    "molecule": "COc1cccc([C@@]2(O)CCCC[C@@H]2CN(C)C)c1",
    "max response (%)": 5.95
  },
  {
    "molecule": "CC(C)C[C@H](CN)CC(=O)O",
    "max response (%)": 2.29
  },
  {
    "molecule": "O=c1oc2ccccc2c(O)c1Cc1c(O)c2ccccc2oc1=O",
    "max response (%)": 2.96
  },
  {
    "molecule": "CC(=O)N1CCN(c2ccc(OC[C@H]3CO[C@](Cn4ccnc4)(c4ccc(Cl)cc4Cl)O3)cc2)CC1",
    "max response (%)": 0.452
  },
  {
    "molecule": "Cc1nnc2n1-c1ccc(Cl)cc1C(c1ccccc1)=NC2",
    "max response (%)": 35.3
  },
  {
    "molecule": "COC(=O)[C@@H](N)CCCN/C(N)=N/[N+](=O)[O-]",
    "max response (%)": -0.272
  },
  {
    "molecule": "CCN(CCO)CCn1c(Cc2ccccc2)nc2c1c(=O)n(C)c(=O)n2C",
    "max response (%)": 2.54
  },
  {
    "molecule": "Nc1ccccc1",
    "max response (%)": -6
  }
]
